I'd be grateful if you could share measured pKd for these entries.
Target: T1, human TGFβ3, mature dimeric form (human, UniProt P10600 301-412)
T1 construct: Peprotech, expressed in E. coli; also called TGFb3
T1 sequence: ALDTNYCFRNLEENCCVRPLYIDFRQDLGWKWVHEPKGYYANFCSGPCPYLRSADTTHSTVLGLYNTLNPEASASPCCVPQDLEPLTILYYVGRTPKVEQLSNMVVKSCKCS
Assay: BIAcore T200
Numbers only, as −log10 of the molar value.

binder	measured-parameter	value-observed
h4A11.v7.17 (antibody, human IgG1, kappa, N297G, V domains shown) VH: EVQLQESGPGLVKPSETLSLTCTVTGFSLSSYTVNWIRQPAGKGLEWIGYISYGGSAYYASWANGRVTISKDTSKNQVSLKLSSVTAADTAVYYCARHMQVGGAPTGSMAAFDPWGQGTLVTVSS VL: EIVLTQSPGTLSLSPGERATLSCQSSQSVYNNNYLSWFQQKPGQAPRLLIYGASTLTSGIPDRFSGSGSGTDFTLTISRLEPEDFAVYYCAGGYSGSSDKYAFGGGTKVEIKR	pKd	11.49

Given the binder h4A11.v7.18 (antibody, human IgG1, kappa, N297G, V domains shown) VH: EVQLQESGPGLVKPSETLSLTCTVTGFSLSSYTVNWIRQPAGKGLEWIGYISYGGSAYYASWANGRVTISKDTSKNQVSLKLSSVTAADTAVYFCARHMQVGGAPTGSMAAFDPWGQGTLVTVSS VL: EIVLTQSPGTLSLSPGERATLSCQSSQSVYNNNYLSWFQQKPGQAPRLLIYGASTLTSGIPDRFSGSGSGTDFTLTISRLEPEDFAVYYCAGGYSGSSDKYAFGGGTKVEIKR , what is its reported pKd?
11.34
